- protocol.notes: XTT cytotoxicity assay (CC50)
- Assay type: cell-based
- test.settings: human, CC50
- Method: This assay utilized the compound XTT (2,3-bis[2-methoxy-4-nitro-5-sulfophenyl]-2H-tetrazolium-5-carboxyanilide inner salt) with addition of an electron coupling agent phenazine methosulfate (PMS) to measure mitochondrial dehydrogenases activity in living cells, e.g., Huh-7.5 cells. […] The percent inhibition for each compound was calculated as follows: % Inhibition=((DMSO Control−Test compound)/DMSO Control)*100, wherein Test compound is defined as wells containing test compound. […]
quantity.measured: CC50 at 72 h

Use these answered entries as a reference point.
COC(=O)C1=C(C(=O)OC)C2N(C)c3ccc(OC)cc3[C@@]23C[C@@H](C(=O)OC)N(C(=O)CC(C)C)C3=N1 (single isomer, unassigned)
> 320 µM
COC(=O)[C@@H]1C[C@@]23C(=NC(c4ccc([N+](=O)[O-])cc4)=C(C(F)(F)F)C2N(C)c2ccccc23)N1C(C)=O (stereo partly drawn) [Compound 22a]
310 µM
CC#CCN1c2ccccc2[C@]23CCC(=O)N(CCOC)C2=NC(C(=O)OC)=C(C(=O)OC)C13 (mixture of isomers)
> 320 µM
COC(=O)C1=C(C(=O)OC)C2N(CCCCCn3cc(CNC(C)=O)nn3)c3ccccc3[C@@]23CCC(=O)N(Cc2ccccc2)C3=N1 (stereo partly drawn)
150 µM
COC(=O)C1=C(C(=O)OC)C2N(CCCCCn3cc(-c4ccc(OC)cc4C)nn3)c3ccccc3[C@@]23CCC(=O)N(Cc2ccccc2)C3=N1 (stereo partly drawn)
> 100 µM

Next molecule, please.
Measured CC50 at 72 h, COC(=O)C1=C(C(=O)OC)C(NCCCN2c3ccccc3[C@]34CCC(=O)N(Cc5ccccc5)C3=NC(C(=O)OC)=C(C(=O)OC)C24)[C@@]2(c3ccccc3)CCC(=O)N(Cc3ccccc3)C2=N1 (stereo partly drawn) : > 36 µM
